# System: Mycobacterium tuberculosis
# protocol-text: Cornell M. t heat shock assay; note: in the data most compounds retested in dose-response had high values
# Assay type: functional, organism-based
# Design: dose or concentration left out as unconfirmed
The campaign covered roughly 69,000 compounds. About 950 (1.4%) showed an effect of 50% or more. What follows is part of a selection rich in strong results, with near analogues and random picks from the rest.
measured-property: Percent Effect (%)
Express your answer in %, writing the number without its unit.

Examples with answers:
>>> reported_result("CCSCCNc1nc2c(s1)c(C)nn2C")
6.366
>>> reported_result("CCC1(O)CCCN(c2nc(-c3ccccn3)nc3c2c(C)nn3C)C1 (centres undefined)")
100.9
>>> reported_result("CNc1ncc2c(n1)CN(Cc1ccc(Cl)cc1)C2=O")
-7.307

Prompt line: Name the recorded Percent Effect of COC(C)(C)Cn1ccnc1-c1cccc(C(C)N(C)C)c1 (centres undefined) , assay system Mycobacterium tuberculosis.
Response line: -20.81

Prompt line: Please indicate recorded Percent Effect of `CC(=O)NCCNc1nc(-c2ccccn2)nc2c1c(C)nn2C` measured with Mycobacterium tuberculosis.
Response line: -12.81
